test: DAPI mCherry counterscreen qHTS for Zika virus inhibitors; conditions: Vero cells, DAPI nuclear count cytotoxicity, imaging 48-72 h; series mostly up to 32.6 µM; note: nearly all actives have a fitted effect of over 55% in size
Records with an inconclusive call do not appear. Calls of active or inactive are those of the source. Calls come from the whole dose curve; as a rule, active = well fitted cell-killing curve with a large enough effect; inconclusive = small, poorly fitted or top-dose-only effect; inactive = flat fitted curve, though single readings scatter.
// classify into yes (1) = active, no (0) = inactive

Examples with answers:
Lookup: What is the recorded call for this compound in the test? CNc1ccc2oc(C[C@@H]3OC4(CC[C@@H]3C)O[C@H]([C@@H](C)C(=O)c3ccc[nH]3)[C@H](C)C[C@H]4C)nc2c1C(=O)O (stereo partly specified)
Found: yes (1)

Lookup: What is the recorded call for this compound in the test? CCCCCOc1cc2c(cc1-c1cc(/C=C/C(=O)O)ccc1O)C(C)(C)CCC2(C)C
Found: yes (1)

Lookup: What is the recorded call for this compound in the test? O=C(O)C(=O)c1cn(Cc2ccccc2)c2ccc(-c3ccc(OC(F)(F)F)cc3)cc12
Found: yes (1)

Others:
Lookup: What is the recorded call for this compound in the test? O=c1oc2ccccc2c(O)c1C(CC(O)c1ccc(-c2ccc(Br)cc2)cc1)c1ccccc1 (stereo unspecified)
Found: yes (1)

Lookup: What is the recorded call for this compound in the test? CC1=C(O)C(=O)C=C2C1=CC=C1[C@@]2(C)CC[C@@]2(C)[C@@H]3C[C@](C)(C(=O)O)CC[C@]3(C)CC[C@]12C
Found: yes (1)

Lookup: What is the recorded call for this compound in the test? O=c1c(C2CC(c3ccc(-c4ccc(Br)cc4)cc3)Cc3ccccc32)c(O)sc2ccccc12 (stereo unspecified)
Found: yes (1)

Lookup: What is the recorded call for this compound in the test? N[C@@H](Cc1ccc(Oc2cc(I)c(O)c(I)c2)c(I)c1)C(=O)O
Found: no (0)

Lookup: What is the recorded call for this compound in the test? CC(C)=CCC[C@]1(C)C=Cc2c(O)c3c(c(CC=C(C)C)c2O1)O[C@]12C(=C[C@@H]4CC1C(C)(C)O[C@@]2(C/C=C(/C)C(=O)O)C4=O)C3=O
Found: yes (1)
